The measured values listed here are drawn from ChEMBL document CHEMBL4616666.

# Lookup of reported pIC50 keyed by entry
test system: MV4-11; assay: Growth inhibition of human MV4-11 cells measured after 4 days by WST8 assay; details: MV4-11, 96 h
pIC50: −log10 of the molar value.

Compound: CC(=O)Nc1cccc(Sc2ncc(N3CCC(C)(N)CC3)nc2N)c1Cl
pIC50: 5.18

Compound: Cc1ncsc1-c1ccc([C@H](C)NC(=O)[C@@H]2C[C@@H](O)CN2C(=O)[C@@H](NC(=O)CCCCCCCCN2CCN(C(=O)CCC(=O)Nc3cccc(Sc4ncc(N5CCC(C)(N)CC5)nc4N)c3Cl)CC2)C(C)(C)C)cc1 (single isomer, unassigned)
pIC50: 8.00

Compound: CC1(N)CCN(c2cnc(-c3cccc(Cl)c3Cl)c(N)n2)CC1
pIC50: 6.00
